System: SR leukemia
Test: NCI-60 one-dose screen, 48 h
Details: 10 µM unless noted
The panel holds about 83,000 compounds, 20% with a hit somewhere; the sample as a whole holds those more often. Calls of active or inactive are those of the source. Rule for the calls: active = growth percent below 10; inactive = the rest. Where a SMILES comes first, the peptide text is derived from it. [ ]: non-standard residue; d: D form. ξ: configuration not given here. ξV = CC(C)C(N)C(=O)O
Classes to choose from: yes (1) = active, no (0) = inactive

Study these solved cases before continuing.
INSERT INTO assay_data (compound, cat) VALUES
  ('O=C(/C=C/c1ccccn1)c1ccccc1', 'yes (1)'),
  ('CS(=O)(=O)OC1CC(n2ccc(=O)[nH]c2=O)OC1COC(c1ccccc1)(c1ccccc1)c1ccccc1 (stereo not given)', 'no (0)'),
  ('CCCCCC(C)c1ccc(O)c(C)c1 (stereo not given)', 'no (0)'),
  ('O=[N+]([O-])C1=C(c2ccccc2)SC=C(c2ccccc2)S1', 'yes (1)'),
  ('CC(C)C(NC(=O)CN)C(=O)O (stereo not given) (H-Gly-[ξV]-OH)', 'no (0)'),
  ('CC[N+](CC)=c1ccc2nc3c(cc(N)c4ccccc43)oc-2c1', 'yes (1)'),
  ('O=C(O)COc1ccc(OCC(=O)O)cc1', 'no (0)'),
  ('Nc1nc(=S)c2ncn(C3OC(CO)C(O)C3O)c2[nH]1 (stereo not given)', 'no (0)'),
  ('CO[C@H](C(=O)[C@@H](O)[C@@H](C)O)[C@@H]1Cc2cc3cc(OC4CC(OC5CC(O)C(O)C(C)O5)C(O)C(C)O4)c(C)c(O)c3c(O)c2C(=O)[C@H]1OC1CC(OC2CC(OC3CC(C)(O)C(O)C(C)O3)C(O)C(C)O2)C(O)C(C)O1 (stereo not given in full)', 'no (0)'),
  ('Clc1ccc(/C=C/c2ccccn2)c(Cl)c1', 'no (0)');

Tell me the assay call for "NNc1c2ccccc2nc2ccccc12" please.
no (0)

Tell me the assay call for "CCC(C)(C)c1cc(O)c(C(C)(C)CC)cc1O" please.
no (0)

Each compound tested received a call. Report the one for CSC1SCC2C(=O)N(C)C(C(C)C)C(=O)OCC(NC(=O)c3cnc4ccccc4n3)C(=O)NC(C)C(=O)N(C)C1C(=O)N(C)C(C(C)C)C(=O)OCC(NC(=O)c1cnc3ccccc3n1)C(=O)NC(C)C(=O)N2C (stereo not given) .
yes (1)

Per the assay record, what outcome was assigned to "CC1=CC(C)=Nc2ccc(Cl)cc2N1" ?
no (0)

// return assay outcome for "CC(C)(C)CC(C)(C)c1ccc(OCCO)cc1"
no (0)

Each recorded value in this set is attributed to PubChem BioAssay (NCI).
